Molecular target: T1, eukaryotically produced human IL-6 (human, UniProt P05231 30-212)
T1 construct: Immobilised on the Biacore chip; also called Euk IL-6; EUK IL-6 (3-1)
Assay: SPR (Biacore), periplasmic Fab
Readout label: Ka (M⁻¹)

Binder	Assay value
48H1 (Fab, V domains shown, Periplasmic Fab; Suffix 'g2, R4' not explained; also called 48H1g2, R4) VH: QVQLVESGGGLVQPGGSLRLSCAASGFTFSNYYMTWVRQAPGKGLEWVSSIYSFSGDTAYADSVKGRFTISRDNAKNTLYLQMNSLKSEDTAVYYCTRNLGGVVVTTNGYDYWGQGTQVTVSS VL: DVVMTQSPSSLPTSLGDSVTITCQASQSISDELSWYQQKPGQTPKLLIYGASKLQTGVPSRFSGSGSGTSFTLTISGLEAEDLATYYCLQGYSWPFMFGQGTKVELK	1.56e+09
55E10 (Fab, V domains shown, Periplasmic Fab; Suffix 'g1' not explained; also called 55E10g1) VH: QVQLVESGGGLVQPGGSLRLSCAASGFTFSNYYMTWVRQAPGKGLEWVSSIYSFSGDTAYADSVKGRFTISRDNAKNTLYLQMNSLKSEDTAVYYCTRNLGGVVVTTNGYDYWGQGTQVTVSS VL: DIQMTQSPSSLPTSLGDSVTITCQASQSISDELSWYQQKPGQTPKLLIYGASKLQTGVPSRFSGSGSGTSFTLTISGLEAEDLATYYCLQGYSWPFMFGQGTKVELK	2.62e+09
55A11 (Fab, V domains shown, Periplasmic Fab; Suffix 'd' of the label not explained; also called 55A11d) VH: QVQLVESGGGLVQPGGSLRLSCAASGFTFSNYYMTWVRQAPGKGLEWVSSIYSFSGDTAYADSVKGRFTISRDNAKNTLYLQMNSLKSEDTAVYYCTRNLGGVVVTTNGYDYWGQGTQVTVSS VL: DIQMTQSPSSLPTSLGDSVTITCQASQSISDELSWYQQKPGQTPKLLIYGASRLQTGVPSRFSGRGSGTSFTLTISGLEAEDLATYYCLQGYSWPFMFGQGTKVELK	1.59e+09
55C11 (Fab, V domains shown, Periplasmic Fab; Suffix 'f' not explained; also called 55C11f) VH: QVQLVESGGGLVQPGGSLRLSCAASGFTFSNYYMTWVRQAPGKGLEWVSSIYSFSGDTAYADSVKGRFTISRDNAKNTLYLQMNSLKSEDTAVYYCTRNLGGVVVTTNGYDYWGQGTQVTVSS VL: DIQLTQSPSSLSASLGDSVTITCQASQSISDELSWYQQKPGQTPKLLIYGASKLQTGVPSRFSGSGSGTSFTLTISGLEAEDLATYYCLQGYRWPFMFGQGTKVELK	3.1e+09
